Tested on: M14 melanoma
test-summary: NCI tumour cell line growth inhibition, 48 h
Assign TGI to each entry below.

Exercise: Item Nc1ccc(C(=O)CC2(O)C(=O)Nc3c(Cl)cc(Cl)cc32)cc1 (stereo not given) has what recorded TGI?
Solution: > 100 µM

Exercise: Item Cc1c(C#N)c(=N)oc2ccccc12 has what recorded TGI?
Solution: > 100 µM

Exercise: Item COc1cc(S(=O)(=O)Nc2ccc(-c3csc(/N=C\c4ccccc4)n3)cc2)ccc1Cl has what recorded TGI?
Solution: > 100 µM

Exercise: Item Cc1ccc2sc3ccc(N)cc3c(=O)c2c1 has what recorded TGI?
Solution: > 100 µM

Exercise: Item CC1(O)CCC2(C)C(=O)C1(C)CCC21OCCO1 (stereo not given) has what recorded TGI?
Solution: > 100 µM

Exercise: Item COc1cc(CNC(=S)CCCCCCCCCCC(C)C)ccc1O has what recorded TGI?
Solution: > 100 µM

Exercise: Item NC(=S)NNC(=S)NC(=O)c1ccco1 has what recorded TGI?
Solution: > 10 µM

Exercise: Item O=P(O)(O)C=C=C1CCCCC1 has what recorded TGI?
Solution: > 100 µM

Exercise: Item O=[N+]([O-])c1ccc2c(c1)n1c(N3CCCC3)[n+]3ccccc3c1c1c3cccc[n+]3c(N3CCCC3)n21 has what recorded TGI?
Solution: > 100 µM

Exercise: Item CC(=O)NC(=O)NC1=NCCC(=O)N1CCc1c[nH]c2ccccc12 has what recorded TGI?
Solution: > 100 µM

Exercise: Item O=C(O)c1cccc(/C=C/c2ccccc2)c1 has what recorded TGI?
Solution: > 100 µM

Exercise: Item Nc1nc(N)nc(CC(=O)O)n1 has what recorded TGI?
Solution: > 100 µM

Exercise: Item CC1=NOC(=O)C1N=Nc1ccc(Br)c(C)c1 (stereo not given) has what recorded TGI?
Solution: 36.1 µM

Exercise: Item CC12CC=CCC1CCC1C2CCC2(C)C(c3ccc(=O)oc3)CCC12O (stereo not given) has what recorded TGI?
Solution: 0.404 µM

Exercise: Item Cc1c(C(=O)CC(=O)C(=O)Nc2cc(Cl)ccc2Cl)[n+](=O)c2ccccc2n1[O-] has what recorded TGI?
Solution: 64.4 µM
